biological target: BACE1 (Homo sapiens (Human), UniProt P56817); assay: In vitro BACE1 cell-based assay (Aβ40 in conditioned medium of cells stably expressing APP, HTRF); settings: Aβ40, 24 h incubation; read-out: BACE1 Cell IC50
Sequence (P56817 46-501, species assumed): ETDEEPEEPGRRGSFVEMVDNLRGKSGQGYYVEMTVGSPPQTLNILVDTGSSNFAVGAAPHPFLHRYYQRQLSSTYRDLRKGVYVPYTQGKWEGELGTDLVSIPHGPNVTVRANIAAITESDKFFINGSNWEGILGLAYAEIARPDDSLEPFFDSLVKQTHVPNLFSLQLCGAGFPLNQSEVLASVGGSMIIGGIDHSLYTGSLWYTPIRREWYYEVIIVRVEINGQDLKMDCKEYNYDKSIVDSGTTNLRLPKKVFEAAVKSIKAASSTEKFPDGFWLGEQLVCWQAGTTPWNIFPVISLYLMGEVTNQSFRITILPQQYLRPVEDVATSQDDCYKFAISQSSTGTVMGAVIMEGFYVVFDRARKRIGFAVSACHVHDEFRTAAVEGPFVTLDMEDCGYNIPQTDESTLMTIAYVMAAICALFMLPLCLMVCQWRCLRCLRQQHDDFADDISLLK
Assign IC50 to each entry below.
Numbers only, in nM.

Example entries and their recorded answers appear below.
>  <compound>
Cc1cc(C#Cc2ccc(F)c([C@@]3(CF)N=C(N)S[C@@]4(/C=C/C(=O)N5CCOCC5)C[C@H]43)c2)sn1

>  <endpoint>
IC50

>  <measuredResult>
23

$$$$
>  <compound>
C[C@]1(c2cc(C#Cc3ccc(C#N)cn3)cnc2F)N=C(N)S[C@@]2(CF)C[C@H]21

>  <endpoint>
IC50

>  <measuredResult>
677

$$$$
>  <compound>
C#Cc1ccc(F)c([C@@]2(C)N=C(N)S[C@@]3(C(=O)N(C)C)C[C@H]32)c1 [Example 123d]

>  <endpoint>
IC50

>  <measuredResult>
328

$$$$

Let us examine a further case.
Record request: IC50 value, item NC1=N[C@](CF)(c2cc(C#Cc3ncc(Cl)cn3)ccc2F)[C@@H]2C[C@]2(/C=C/C(=O)N2CCOCC2)S1
29

====

target: Recombinant CatD (Homo sapiens (Human), UniProt P07339); assay: In vitro enzymatic Cathepsin D (CatD) FRET assay; assay type: biochemical; conditions: pH 3.5, read-out: Cat D Enzyme IC50
Sequence (P07339 65-412): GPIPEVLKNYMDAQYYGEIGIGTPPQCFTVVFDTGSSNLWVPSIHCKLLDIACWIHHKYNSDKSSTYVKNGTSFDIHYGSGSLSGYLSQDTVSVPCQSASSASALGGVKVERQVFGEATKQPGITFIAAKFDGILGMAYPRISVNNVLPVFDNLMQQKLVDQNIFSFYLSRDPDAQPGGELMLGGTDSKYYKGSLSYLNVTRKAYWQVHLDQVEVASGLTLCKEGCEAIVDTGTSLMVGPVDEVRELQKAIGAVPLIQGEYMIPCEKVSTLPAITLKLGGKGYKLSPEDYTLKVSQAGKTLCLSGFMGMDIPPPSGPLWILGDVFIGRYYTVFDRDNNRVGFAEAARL
Assign IC50 to each entry below.
Numbers only, in µM.

Example entries and their recorded answers appear below.
>  <molecule>
NC1=N[C@](CF)(c2cc(C#Cc3cc(Cl)ccn3)ccc2F)[C@@H]2C[C@]2(CF)S1

>  <uom>
µM

>  <IC50>
903

$$$$
>  <molecule>
Cc1cc(C#Cc2ccc(F)c([C@@]3(CF)N=C(N)S[C@@]4(/C=C/C(=O)N5CCOCC5)C[C@H]43)c2)sn1

>  <uom>
µM

>  <IC50>
26.2

$$$$
>  <molecule>
N#Cc1ccc(C#Cc2ccc(F)c([C@@]3(CF)N=C(N)S[C@@]4(CC(N)=O)C[C@H]43)c2)nc1

>  <uom>
µM

>  <IC50>
1420

$$$$
>  <molecule>
C#Cc1ccc(F)c([C@@]2(C)N=C(N)S[C@@]3(C(=O)N(C)C)C[C@H]32)c1 [Example 123d]

>  <uom>
µM

>  <IC50>
50.5

$$$$
>  <molecule>
CN(C)C(=O)/C=C/[C@]12C[C@H]1[C@@](CF)(c1cc(C#Cc3ccc(C#N)cn3)ccc1F)N=C(N)S2

>  <uom>
µM

>  <IC50>
176

$$$$

Would you mind giving IC50 for every molecule in the list below?
1. N#Cc1ccc(C#Cc2ccc(F)c([C@@]3(CF)N=C(N)S[C@@]4(/C=C/C(=O)N5CCOCC5)C[C@H]43)c2)cc1
2. N#Cc1cnc(C#Cc2ccc(F)c([C@@]3(CF)N=C(N)S[C@@]4(/C=C/C(=O)N5CCOCC5)C[C@H]43)c2)nc1
3. N#Cc1cnc(C#Cc2ccc(F)c([C@@]3(CF)N=C(N)S[C@@]4(/C=C/C(=O)N5CCOCC5)C[C@H]43)c2)c(F)c1
4. NC1=N[C@](CF)(c2cc(C#Cc3ncc(Cl)cn3)ccc2F)[C@@H]2C[C@]2(/C=C/C(=O)N2CCOCC2)S1
5. N#Cc1ccc(C#Cc2ccc(F)c([C@@]3(CF)N=C(N)S[C@@]4(/C=C/C(=O)N5CCOCC5)C[C@H]43)c2)nc1

1. 84.3
2. 143
3. 335
4. 169
5. 300

Would you mind giving IC50 for every molecule in the list below?
1. CN(C)C(=O)[C@]12C[C@H]1[C@@](C)(c1cc(C#CC3CC3)ccc1F)N=C(N)S2
2. N#Cc1cnc(C#Cc2ccc(F)c([C@@]3(CF)N=C(N)S[C@@]4(CF)C[C@H]43)c2)cn1
3. N#Cc1ccc(C#Cc2ccc(F)c([C@@]3(CF)N=C(N)S[C@@]4(CO)C[C@H]43)c2)nc1
4. NC1=N[C@](CF)(c2cc(C#Cc3ccc(OCc4ncco4)cn3)ccc2F)[C@@H]2C[C@]2(CF)S1
5. N#Cc1ccc(C#Cc2ccc(F)c([C@@]3(CF)N=C(N)S[C@@]4(CF)C[C@H]43)c2)nc1

46.8
229
4870
784
2860

====

molecular target: UniProt P56817; assay: In vitro BACE1 cell-based assay (Aβ40 in conditioned medium of cells stably expressing APP, HTRF); settings: Aβ40, 24 h incubation; read-out: BACE1 Cell IC50
endpoint: pIC50
One number for each entry, as −log10 of the molar value.

Example entries and their recorded answers appear below.
>  <smi>
C[C@]1(c2cc(C#Cc3ccc(C#N)cn3)ccc2F)N=C(N)S[C@]2(CO)[C@H]1C2(F)F

>  <pIC50>
6.45

$$$$
>  <smi>
N#Cc1ccc(C#Cc2ccc(F)c([C@@]3(CF)N=C(N)S[C@@]4(CCC(=O)N5CCOCC5)C[C@H]43)c2)nc1

>  <pIC50>
7.22

$$$$
>  <smi>
CC#CCOc1ccc(C#Cc2ccc(F)c([C@@]3(CF)N=C(N)S[C@@]4(CF)C[C@H]43)c2)nc1

>  <pIC50>
6.13

$$$$
>  <smi>
N#Cc1cnc(C#Cc2ccc(F)c([C@@]3(CF)N=C(N)S[C@@]4(CF)C[C@H]43)c2)cn1

>  <pIC50>
5.41

$$$$
>  <smi>
CN(C)C(=O)/C=C/[C@]12C[C@H]1[C@@](CF)(c1cc(C#Cc3ccc(C#N)cn3)ccc1F)N=C(N)S2

>  <pIC50>
6.86

$$$$

Would you mind giving pIC50 for every compound in the list below?
1. NC1=N[C@](CF)(c2cc(C#Cc3ccc(Cl)cn3)ccc2F)[C@@H]2C[C@]2(CF)S1
2. Cc1cc(C#N)cnc1C#Cc1ccc(F)c([C@@]2(CF)N=C(N)S[C@@]3(CCC(=O)N4CCOCC4)C[C@H]32)c1

1. 6.16
2. 7.28

====

biological target: UniProt P56817; experiment: In vitro BACE1 cell-based assay (Aβ40 in conditioned medium of cells stably expressing APP, HTRF)
Note to self: IC50 under 60 nM means criterion met, ties and anything higher get criterion not met.

Field: example entries. Status: answers known.
>  <compound>
NC1=N[C@](CF)(c2cc(C#Cc3cc(Cl)ccn3)ccc2F)[C@@H]2C[C@]2(CF)S1 [Example 138]

>  <systemName>
UniProt P56817

>  <labelValue>
criterion not met

$$$$
>  <compound>
Cc1cc(C#N)cnc1C#Cc1cnc(F)c([C@@]2(C)N=C(N)S[C@@]3(C(=O)N4CCCC4)CC32)c1 (stereo partly drawn) [Example 137]

>  <systemName>
UniProt P56817

>  <labelValue>
criterion met

$$$$
>  <compound>
Cc1cc(C#N)cnc1C#Cc1cnc(F)c([C@@]2(C)N=C(N)S[C@@]3(C(=O)N4CCOCC4)CC32)c1 (stereo partly drawn) [Example 136]

>  <systemName>
UniProt P56817

>  <labelValue>
criterion not met

$$$$
>  <compound>
COC[C@]12CC1[C@@](C)(c1cc(C#Cc3ncc(Cl)cc3C)ccc1F)N=C(N)S2 (stereo partly drawn) [Example 134]

>  <systemName>
UniProt P56817

>  <labelValue>
criterion not met

$$$$

Here's an entry: COC[C@]12CC1[C@@](C)(c1cc(C#Cc3ncc(C#N)cc3C)ccc1F)N=C(N)S2 (stereo partly drawn) [Example 135] . Is its IC50 below 60 nM?
criterion met

Here's an entry: Cc1cc(C#N)cnc1C#Cc1ccc(F)c([C@@]2(CF)N=C(N)S[C@@]3(C(=O)N(C)C)C[C@H]32)c1 [Example 127] . Is its IC50 below 60 nM?
criterion met

Here's an entry: CN(C)C(=O)[C@]12C[C@H]1[C@@](C)(c1cc(C#Cc3ccc(C#N)cc3)ccc1F)N=C(N)S2 [Example 129] . Is its IC50 below 60 nM?
criterion met

Here's an entry: Cc1cc(C#N)cnc1C#Cc1ccc(F)c([C@@]2(C)N=C(N)S[C@@]3(C(=O)N4CCCC4)C[C@H]32)c1 [Example 128] . Is its IC50 below 60 nM?
criterion met

====

Assign pIC50 to each entry below.
biological target: human recombinant BACE2 (Homo sapiens (Human), UniProt Q9Y5Z0); experiment: In vitro enzymatic BACE2 FRET assay; details: pH 4.5, read-out: BACE2 Enzyme IC50
Sequence (Q9Y5Z0 63-518): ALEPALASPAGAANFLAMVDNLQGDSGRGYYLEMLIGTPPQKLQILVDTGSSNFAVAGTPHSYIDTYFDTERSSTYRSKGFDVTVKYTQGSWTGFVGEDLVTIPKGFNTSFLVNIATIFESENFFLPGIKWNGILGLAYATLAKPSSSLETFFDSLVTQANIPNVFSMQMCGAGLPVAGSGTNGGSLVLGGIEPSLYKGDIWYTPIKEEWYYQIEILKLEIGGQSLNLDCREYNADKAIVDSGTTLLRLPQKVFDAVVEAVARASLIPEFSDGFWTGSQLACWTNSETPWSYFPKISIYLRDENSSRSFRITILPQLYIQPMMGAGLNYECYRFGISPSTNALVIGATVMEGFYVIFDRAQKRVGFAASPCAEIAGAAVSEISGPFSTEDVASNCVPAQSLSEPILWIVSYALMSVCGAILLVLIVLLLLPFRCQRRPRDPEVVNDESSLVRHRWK
Give bare numbers, as −log10 of the molar value.

Example entries and their recorded answers appear below.
>  <compound>
N#Cc1cnc(C#Cc2ccc(F)c([C@@]3(CF)N=C(N)S[C@@]4(CF)C[C@H]43)c2)cn1

>  <measuredResult>
5.80

$$$$
>  <compound>
NC1=N[C@](CF)(c2cc(C#Cc3ncc(Cl)cn3)ccc2F)[C@@H]2C[C@]2(/C=C/C(=O)N2CCOCC2)S1

>  <measuredResult>
7.92

$$$$
>  <compound>
CN(C)C(=O)[C@]12C[C@H]1[C@@](C)(c1cc(C#Cc3ccc(C#N)cc3)ccc1F)N=C(N)S2

>  <measuredResult>
6.60

$$$$
>  <compound>
CN(C)C(=O)/C=C/[C@]12C[C@H]1[C@@](CF)(c1cc(C#Cc3ccc(C#N)cn3)ccc1F)N=C(N)S2

>  <measuredResult>
5.80

$$$$
>  <compound>
C#CCOc1ccc(C#Cc2ccc(F)c([C@@]3(C)N=C(N)S[C@@]4(C(=O)N(C)C)C[C@H]43)c2)nc1

>  <measuredResult>
6.36

$$$$

Would you mind giving pIC50 for every compound in the list below?
1. Cc1cc(C#N)cnc1C#Cc1cnc(F)c([C@@]2(C)N=C(N)S[C@@]3(C(=O)N4CCOCC4)CC32)c1 (some centres unmarked)
2. N#C/C=C/[C@]12C[C@H]1[C@@](CF)(c1cc(C#Cc3ccc(C#N)cn3)ccc1F)N=C(N)S2
3. NC1=N[C@](CF)(c2cc(C#Cc3cc(Cl)ccn3)ccc2F)[C@@H]2C[C@]2(CF)S1
4. Cc1cc(C#N)cnc1C#Cc1ccc(F)c([C@@]2(CF)N=C(N)S[C@@]3(C(=O)N(C)C)C[C@H]32)c1
5. N#Cc1ccc(C#Cc2ccc(F)c([C@@]3(CF)N=C(N)S[C@@]4(CF)C[C@H]43)c2)nc1

6.01
5.59
7.11
7.11
5.22

Would you mind giving pIC50 for every compound in the list below?
1. Cc1cc(C#N)cnc1C#Cc1ccc(F)c([C@@]2(C)N=C(N)S[C@@]3(C(=O)N4CCCC4)C[C@H]32)c1
2. N#Cc1ccc(C#Cc2ccc(F)c([C@@]3(CF)N=C(N)S[C@@]4(Cn5ccnc5)C[C@H]43)c2)nc1
3. N#Cc1ccc(C#Cc2ccc(F)c([C@@]3(CF)N=C(N)S[C@@]4(/C=C/C(=O)N5CCOCC5)C[C@H]43)c2)nc1
4. NC1=N[C@](CF)(c2cc(C#Cc3ccc(OCc4ncco4)cn3)ccc2F)[C@@H]2C[C@]2(CF)S1

[6.37, 5.09, 6.39, 4.85]
